Molecular target: T1, human CD30 (commercial, conjugated to digoxigenin) (human, UniProt P28908 19-379, limits assumed, conjugated to digoxigenin (DIG))
T1 sequence (looked up): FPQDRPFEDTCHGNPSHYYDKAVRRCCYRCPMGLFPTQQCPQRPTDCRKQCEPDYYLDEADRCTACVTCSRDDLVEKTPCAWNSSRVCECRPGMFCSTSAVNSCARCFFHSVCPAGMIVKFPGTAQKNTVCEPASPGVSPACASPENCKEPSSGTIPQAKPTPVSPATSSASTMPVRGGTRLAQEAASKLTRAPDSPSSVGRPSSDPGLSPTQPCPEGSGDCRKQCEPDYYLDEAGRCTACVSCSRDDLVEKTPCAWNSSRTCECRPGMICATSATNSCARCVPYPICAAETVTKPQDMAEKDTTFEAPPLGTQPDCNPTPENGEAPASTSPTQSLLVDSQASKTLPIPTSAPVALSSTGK
Experiment: AlphaScreen competition
Friendly reminder: Fold IC50 vs H3/L3 below 1 fold is True, at or above is False.

Use these answered entries as a reference point.
{"binder": "AC10 H3/L3.64 (antibody, IgG1, name in Kabat numbering, V domains shown) VH: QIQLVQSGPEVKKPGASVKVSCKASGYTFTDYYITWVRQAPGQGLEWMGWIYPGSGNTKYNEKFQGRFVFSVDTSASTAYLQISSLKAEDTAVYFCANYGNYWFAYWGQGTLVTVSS VL: DIVLTQSPDSLAVSLGERATINCKASQSVDFDGDSYMNWYQQKPGQPPKVLIYAASNLESGIPARFSGSGSGTDFTLTINSLEAEDAATYYCQQSNETPWTFGGGTKVEIK", "group": "True"}
{"binder": "AC10 H3/L3.38 (antibody, IgG1, name in Kabat numbering, V domains shown) VH: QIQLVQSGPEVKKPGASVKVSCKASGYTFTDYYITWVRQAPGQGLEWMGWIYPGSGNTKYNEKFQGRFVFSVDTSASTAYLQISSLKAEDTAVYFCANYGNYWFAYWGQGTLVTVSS VL: DIVLTQSPDSLAVSLGERATINCKASQSVDFDGDSYMNWYQQKPGQPPKVLIYAASNRESGIPARFSGSGSGTDFTLTINSLEAEDAATYYCQQSNEDPWTFGGGTKVEIK", "group": "False"}
{"binder": "AC10 H3/L3.44 (antibody, IgG1, name in Kabat numbering, V domains shown) VH: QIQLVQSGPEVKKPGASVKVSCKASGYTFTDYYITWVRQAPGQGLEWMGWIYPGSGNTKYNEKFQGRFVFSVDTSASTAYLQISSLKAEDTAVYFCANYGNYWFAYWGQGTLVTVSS VL: DIVLTQSPDSLAVSLGERATINCKASQSVDFDGDSYMNWYQQKPGQPPKVLIYAASNLESGIPSRFSGSGSGTDFTLTINSLEAEDAATYYCQQSNEDPWTFGGGTKVEIK", "group": "False"}
{"binder": "AC10 H3/L3.28 (antibody, IgG1, name in Kabat numbering, V domains shown) VH: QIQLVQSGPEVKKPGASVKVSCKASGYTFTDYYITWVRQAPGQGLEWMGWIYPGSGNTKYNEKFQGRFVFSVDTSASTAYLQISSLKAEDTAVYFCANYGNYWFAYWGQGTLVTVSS VL: DIVLTQSPDSLAVSLGERATINCKASQSVDFDGDSYMDWYQQKPGQPPKVLIYAASNLESGIPARFSGSGSGTDFTLTINSLEAEDAATYYCQQSNEDPWTFGGGTKVEIK", "group": "True"}

Consider AC10 H3/L3.25 (antibody, IgG1, name in Kabat numbering, V domains shown) VH: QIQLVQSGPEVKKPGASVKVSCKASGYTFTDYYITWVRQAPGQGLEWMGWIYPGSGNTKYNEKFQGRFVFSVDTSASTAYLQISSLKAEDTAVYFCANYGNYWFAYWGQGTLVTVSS VL: DIVLTQSPDSLAVSLGERATINCKASQSVDFDGDSYLNWYQQKPGQPPKVLIYAASNLESGIPARFSGSGSGTDFTLTINSLEAEDAATYYCQQSNEDPWTFGGGTKVEIK . Does its Fold IC50 vs H3/L3 lie strictly below 1 fold?
False

Consider AC10 H3/L3.9 (antibody, IgG1, name in Kabat numbering, V domains shown) VH: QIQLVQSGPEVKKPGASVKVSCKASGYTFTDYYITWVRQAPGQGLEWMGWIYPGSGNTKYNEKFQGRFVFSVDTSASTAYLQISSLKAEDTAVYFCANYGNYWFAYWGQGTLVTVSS VL: DIVLTQSPDSLAVSLGERATINCKASQSIDFDGDSYMNWYQQKPGQPPKVLIYAASNLESGIPARFSGSGSGTDFTLTINSLEAEDAATYYCQQSNEDPWTFGGGTKVEIK . Does its Fold IC50 vs H3/L3 lie strictly below 1 fold?
True

Consider AC10 H3/L3.4 (antibody, IgG1, name in Kabat numbering, V domains shown) VH: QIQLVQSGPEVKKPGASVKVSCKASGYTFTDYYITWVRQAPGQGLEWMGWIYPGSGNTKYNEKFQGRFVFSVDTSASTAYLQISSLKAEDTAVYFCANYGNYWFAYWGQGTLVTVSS VL: SIVLTQSPDSLAVSLGERATINCKASQSVDFDGDSYMNWYQQKPGQPPKVLIYAASNLESGIPARFSGSGSGTDFTLTINSLEAEDAATYYCQQSNEDPWTFGGGTKVEIK . Does its Fold IC50 vs H3/L3 lie strictly below 1 fold?
False

Consider AC10 H3/L3.42 (antibody, IgG1, name in Kabat numbering, V domains shown) VH: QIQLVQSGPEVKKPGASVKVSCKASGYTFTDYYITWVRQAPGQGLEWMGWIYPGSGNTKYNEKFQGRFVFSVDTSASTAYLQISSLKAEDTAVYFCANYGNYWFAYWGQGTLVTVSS VL: DIVLTQSPDSLAVSLGERATINCKASQSVDFDGDSYMNWYQQKPGQPPKVLIYAASNLESGVPARFSGSGSGTDFTLTINSLEAEDAATYYCQQSNEDPWTFGGGTKVEIK . Does its Fold IC50 vs H3/L3 lie strictly below 1 fold?
False

Consider AC10 H3/L3.33 (antibody, IgG1, name in Kabat numbering, V domains shown) VH: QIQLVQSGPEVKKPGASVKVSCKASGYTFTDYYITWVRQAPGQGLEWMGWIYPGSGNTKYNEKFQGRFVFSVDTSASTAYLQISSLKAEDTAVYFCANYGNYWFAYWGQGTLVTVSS VL: DIVLTQSPDSLAVSLGERATINCKASQSVDFDGDSYMNWYQQKPGQPPKVLIYDASNLESGIPARFSGSGSGTDFTLTINSLEAEDAATYYCQQSNEDPWTFGGGTKVEIK . Does its Fold IC50 vs H3/L3 lie strictly below 1 fold?
True

Consider AC10 H3/L3.37 (antibody, IgG1, name in Kabat numbering, V domains shown) VH: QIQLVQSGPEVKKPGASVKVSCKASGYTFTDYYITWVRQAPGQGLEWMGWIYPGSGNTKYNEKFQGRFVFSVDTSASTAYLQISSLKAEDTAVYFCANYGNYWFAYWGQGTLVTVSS VL: DIVLTQSPDSLAVSLGERATINCKASQSVDFDGDSYMNWYQQKPGQPPKVLIYAASTLESGIPARFSGSGSGTDFTLTINSLEAEDAATYYCQQSNEDPWTFGGGTKVEIK . Does its Fold IC50 vs H3/L3 lie strictly below 1 fold?
False
